Tested on: secretory phospholipase A2
Test: Chemical stability of the compound in presence of snake venom secretory phospholipase A2 after 48 hrs by MALDI-TOF MS analysis
Format: physicochemical
Settings: read-out: Stability
Test readout: remaining at 48 h (%)
Give just the numeric value; % need not be written.

Just so you know, measured remaining at 48 h for CCCCC/C=C/C=C1\C(=O)C=C[C@H]1C/C=C/CCCC(=O)O[C@H](COCCCCCCCCCCCCCCCCCC)COP(=O)(O)OC[C@@H](O)CO came out at 70
